Reference source for all entries: patent US8507528B2

Record form. Attribute: Ki. Fill in for each entry.
Measured On: rat 5-HT2A serotonin receptor (Rattus norvegicus, UniProt P14842)
Sequence (P14842 whole entry): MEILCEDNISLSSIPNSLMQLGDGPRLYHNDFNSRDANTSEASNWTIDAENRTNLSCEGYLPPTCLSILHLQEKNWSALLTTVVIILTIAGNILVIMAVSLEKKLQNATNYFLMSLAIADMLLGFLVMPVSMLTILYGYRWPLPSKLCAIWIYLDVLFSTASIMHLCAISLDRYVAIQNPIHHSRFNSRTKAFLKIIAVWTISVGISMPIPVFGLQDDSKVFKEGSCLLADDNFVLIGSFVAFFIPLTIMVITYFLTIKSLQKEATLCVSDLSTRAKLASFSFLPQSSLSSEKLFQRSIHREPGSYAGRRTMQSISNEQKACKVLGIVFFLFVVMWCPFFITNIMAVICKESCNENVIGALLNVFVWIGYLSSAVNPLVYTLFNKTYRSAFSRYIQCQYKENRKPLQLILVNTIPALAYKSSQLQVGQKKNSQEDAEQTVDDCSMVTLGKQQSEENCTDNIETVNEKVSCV
Assay Procedure: biochemical
Structures can show the parent of a compound that is named as a salt.
One number for each entry, in nM.

>>> assay_result("Cn1nc2ccccc2c1C(=O)N1CCC(CNCCc2ccc(F)cc2F)CC1 [Compound 9, hydrochloride]")
631

Provide each entry's Ki from the list below.
1. Cn1nc2ccccc2c1C(=O)NCC1CCN(CCc2ccc(O)cc2)CC1 [Compound 3, hydrochloride hydrate]
2. Cn1nc2ccccc2c1C(=O)NCC1CCN(CCc2ccccc2)CC1 [Compound 1, hydrochloride hydrate]
3. COc1ccc2nn(C)c(C(=O)NCC3CCN(CCc4ccc(O)cc4)CC3)c2c1 [Compound 4]
4. Cl.Cn1nc2ccccc2c1C(=O)NCC1CCN(CCc2ccc(F)cc2)CC1 [Compound 8, hydrochloride]
5. Cl.Cn1nc2ccccc2c1C(=O)N1CCC(CNCCc2ccc(F)cc2)CC1 [Compound 10, hydrochloride]

47.9
32.4
47.9
15.8
263

Below are some compounds; for each one, tell me its Ki.
1. COCCn1nc2ccccc2c1C(=O)NCC1CCN(CCc2ccc(F)cc2)CC1.Cl [Compound 7, hydrochloride]
2. COc1ccc(CCN2CCC(CNC(=O)c3c4ccccc4nn3C)CC2)cc1.Cl [Compound 5, hydrochloride]

91.2
1580

====

Assignment: determine reported melting point for the given compounds.

Worked cases, answers included:
>>> assay_result("COc1ccc(CCN2CCC(CNC(=O)c3c4ccccc4nn3C)CC2)cc1.Cl")
"80 °C (dec.)"
>>> assay_result("Cl.Cn1nc2ccccc2c1C(=O)NCC1CCN(CCc2ccc(F)cc2)CC1")
"208 to 209 °C"
>>> assay_result("COc1ccc2nn(C)c(C(=O)NCC3CCN(CCc4ccc(O)cc4)CC3)c2c1")
"218 to 219 °C (dec.)"

Quick request: melting point for each listed item, please.
1. Cn1nc2ccccc2c1C(=O)NC1CCN(CCc2ccc(F)cc2)C1 (stereo not shown)
2. Cl.Cn1nc2ccccc2c1C(=O)N1CCC(CNCCc2ccc(F)cc2)CC1
3. Cn1nc2ccccc2c1C(=O)NCCCN1CCC(c2ccc(F)cc2)CC1

1: 117 to 119 °C; 2: 198 to 199 °C; 3: 136 to 140 °C

====

I'd be grateful if you could share measured melting point for these entries.

Worked cases, answers included:
>>> assay_result("Cn1nc2ccccc2c1C(=O)NCC1CCN(CCc2ccc(C(F)(F)F)cc2)CC1 [Compound 17]")
"174 to 176 °C"
>>> assay_result("Cn1nc2ccccc2c1C(=O)NC1CCN(Cc2ccccc2)CC1 [Compound 21]")
"167 to 169 °C"
>>> assay_result("COCCn1nc2ccccc2c1C(=O)NCC1CCN(CCc2ccc(F)cc2)CC1.Cl [Compound 7]")
"193 to 194 °C"
>>> assay_result("Cn1nc2ccccc2c1C(=O)NC1CCN(CCCc2ccc(F)cc2)CC1 [Compound 22]")
"162 to 165 °C"
>>> assay_result("Cn1nc2ccccc2c1C(=O)NCC1CCN(CCc2ccc(F)cc2F)CC1 [Compound 23]")
"122 to 126 °C"

Need melting point for each of these molecules.
1. Cl.Cn1nc2ccccc2c1C(=O)NC1CCN(CCc2ccc(F)cc2)CC1
2. Cn1nc2ccccc2c1C(=O)NC1CCN(CCc2ccccc2F)CC1 [Compound 18]

1: 224 to 228 °C; 2: 164 to 166 °C
